The values you see were collected from patent US10618918B2.

molecular target: purified class A, C and D enzymes (β-lactamases) (Acinetobacter baumannii, UniProt Q9L4P2); construct: rows headed: Ki (OXA-23, NCF), uM; other: purified OXA-23; nitrocefin (NCF) as reporter substrate; assay: biochemical; settings: purified OXA-23; nitrocefin (NCF) as reporter substrate
Sequence (Q9L4P2 whole entry): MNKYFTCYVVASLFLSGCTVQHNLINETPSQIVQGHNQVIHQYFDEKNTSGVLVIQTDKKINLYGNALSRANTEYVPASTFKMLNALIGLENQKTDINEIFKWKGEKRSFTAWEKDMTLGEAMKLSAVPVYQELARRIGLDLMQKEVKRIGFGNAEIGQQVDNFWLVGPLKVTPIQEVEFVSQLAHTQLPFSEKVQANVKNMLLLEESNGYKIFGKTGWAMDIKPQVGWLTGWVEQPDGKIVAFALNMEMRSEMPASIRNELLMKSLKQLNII
Each record here notes measured Ki.

Query block: Tell me Ki reported for COc1c(Cl)cc2c(c1C(=O)O)OB(O)CC2 [Compound 41]
Result block: < 100 nM

* * *

biological target: purified class A, C and D enzymes (β-lactamases) (Acinetobacter baumannii, UniProt Q9L4P2); construct: rows headed: Ki (OXA-23, NCF), uM; other: purified OXA-23; nitrocefin (NCF) as reporter substrate; assay: biochemical; details: purified OXA-23; nitrocefin (NCF) as reporter substrate
value kind: Ki

Answered cases to consult:
compound: C#Cc1ccc2c(c1C(=O)[O-])O[B-](O)(O)CC2.[Na+].[Na+] [Compound 18]
Ki: < 100 nM

compound: NCCCSCc1ccc2c(c1C(=O)[O-])O[B-](O)(O)CC2.[Na+].[Na+] [Compound 21]
Ki: < 100 nM

compound: CCOc1ccc2c(c1C(=O)[O-])O[B-](O)(O)CC2.[Na+].[Na+] [Compound 57]
Ki: < 100 nM

compound: N#Cc1ccc2c(c1C(=O)[O-])O[B-](O)(O)CC2.[Na+].[Na+] [Compound 54]
Ki: 100 to 1000 nM

Query block: Tell me Ki reported for O=C([O-])c1c(OCC(F)F)ccc2c1O[B-](O)(O)CC2.[Na+].[Na+] [Compound 29]
Result block: < 100 nM

Query block: Tell me Ki reported for O=C([O-])c1c(OCc2ccncc2)ccc2c1O[B-](O)(O)CC2.[Na+].[Na+] [Compound 28]
Result block: < 100 nM

Query block: Tell me Ki reported for O=C(O)c1cccc2c1OB(O)CC2 [Compound 5]
Result block: 100 to 1000 nM

Query block: Tell me Ki reported for O=C(O)c1c(-c2c[nH]nn2)ccc2c1O[B-](O)(O)CC2 [Compound 16]
Result block: < 100 nM

Query block: Tell me Ki reported for O=C([O-])c1c(CO)ccc2c1O[B-](O)(O)CC2.[Na+].[Na+] [Compound 49]
Result block: < 100 nM

Query block: Tell me Ki reported for O=C([O-])c1cncc2c1O[B-](O)(O)CC2.[Na+].[Na+] [Compound 59]
Result block: > 1000 nM

Query block: Tell me Ki reported for COc1ccc2c(c1C(=O)[O-])O[B-](O)(O)[C@@H](CCO)C2.[Na+].[Na+] [Compound 12]
Result block: 100 to 1000 nM

Query block: Tell me Ki reported for O=C([O-])c1c(-c2ccn[nH]2)ccc2c1O[B-](O)(O)CC2.[Na+].[Na+] [Compound 15]
Result block: < 100 nM

Query block: Tell me Ki reported for NC(=O)COc1ccc2c(c1C(=O)O)OB(O)CC2 [Compound 46]
Result block: < 100 nM
